Test system: c-Abl (mouse);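 note: 11-residue human phosphosite peptides and single-mutation variants displayed on the E. coli surface, counted by deep sequencing, each peptide's frequency after selection divided by its frequency in the unselected input library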;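 note: frequency after pTyr selection over input frequency; kinase dosed for 20-30% of maximal phosphorylation in three min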
experiment description: phosphorylation enrichment, bacterial display (enrichment ratio); higher = better substrate or ligand; peptides without Tyr show the background
endpoint name: phosphorylation enrichment

See these solved cases before continuing.
ordered residues: GQDLFYEDEDL [PACS1_Y303]
result: 0.839
--
ordered residues: ELCSEYHKSRK [SPINK5_Y440_R441H]
result: 0.999
--
ordered residues: DLRTGYSVPFG [TGM1_Y370_Y365D_YF]
result: 0.794

Ask | So what's the measured phosphorylation enrichment for this one? LPPGTYPSDFT [UNC5B_Y511_A516T]
Reply | 1.78

Ask | Look up phosphorylation enrichment: KDHPDYKYQLR [SOX10_Y171_P175L]
Reply | 0.696

* * *

target entity: SHP2-C SH2;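 note: peptide library displayed on the E. coli surface as eCPX fusions, selected cells deep-sequenced, score is each peptide's frequency after selection divided by its frequency in the input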
experiment description: SH2 binding enrichment of the phosphorylated peptide, bacterial display (enrichment ratio); higher = better substrate or ligand; peptides without Tyr show the background
criterion met means recorded SH2 binding enrichment is 0.7 or above; criterion not met means it is below 0.7.

ordered residues: IDPFIYTPFGS [CYP3A4_Y432_YF]
class assignment: criterion met

Ask | Identify whether the reported SH2 binding enrichment of the following sequence is 0.7 or greater: EYQLPYYNTVP [BMPR1A_Y457_M460T]
Reply | criterion met

Ask | SH2 binding enrichment >= 0.7 for GMAHNYRNRSQ [AASS_Y188_S191R] ?
Reply | criterion not met

Ask | Check the entry ANKNVYEVEPT [MEGF10_Y1075_R1072K] : does SH2 binding enrichment equal or exceed 0.7?
Reply | criterion met

Ask | Does the reported SH2 binding enrichment for LDYNEYFRNLN [HPRT1_Y198_D201N] fall at or above the 0.7 mark?
Reply | criterion met

Ask | Dear colleague, could you confirm whether FLAATYPTLGQ [NF1_Y2508_V2511L_YF] has SH2 binding enrichment at or above 0.7?
Reply | criterion met

Ask | Hello, I need to know if KNAEKYAEEDW [HSPA9_Y568_R573W] has measured SH2 binding enrichment not below 0.7. Thanks!
Reply | criterion not met

Ask | Does GTTIHYNFMCN [TP53_Y234_C229G_YF] have a reported SH2 binding enrichment of at least 0.7?
Reply | criterion not met

Ask | Test whether the sequence AEMTGYVVTRW [MAPK13_Y182] records SH2 binding enrichment of 0.7 or higher.
Reply | criterion not met

Ask | Tell me whether SH2 binding enrichment is at least 0.7 here: LAAPKYKLNVD [SMARCA2_Y1190_A1188P]
Reply | criterion not met

Ask | SH2 binding enrichment >= 0.7 for VVSLFYGTALF [OR10C1_Y251_M246V] ?
Reply | criterion not met

Ask | # bool: SH2 binding enrichment of `AKIDGYIISFR` >= 0.7
Reply | criterion not met

Ask | Please tell me: is the sequence GQDLFYEDEDL [PACS1_Y303] at or over 0.7 in terms of SH2 binding enrichment?
Reply | criterion not met

Ask | Is SH2 binding enrichment at least 0.7? Consider ITSLLYHVVGW [GBA_Y412_N409S]
Reply | criterion met

Ask | Could you verify whether the entry SNKLTYGTVVF [ACOX1_Y275_M278V] shows SH2 binding enrichment of no less than 0.7?
Reply | criterion met

Ask | Does SH2 binding enrichment meet or surpass 0.7 for PIGRKYKKVRF [F8_Y442_R437P] ?
Reply | criterion not met

Ask | Evaluate RFLFFYSFLLK [PTEN_Y178_V175L_YF] : SH2 binding enrichment at minimum 0.7?
Reply | criterion met

Ask | Determine whether measured SH2 binding enrichment meets or exceeds 0.7 for IKNSGYISRYL [EIF2AK3_Y585]
Reply | criterion met

Ask | For this sequence, is measured SH2 binding enrichment 0.7 or higher? NELTFYCFKKD [CD59_Y87_C89Y_YF]
Reply | criterion not met
